- Assay summary: 384-well plate pilot, post-Golgi transport modulator project, inhibition of yeast transport mutant growth (AID 636)
- Assay context: absorbance 615 nm, about 18 h, hits give high values
Measurement type: inhibition (%)
Numbers only, in %.

These solved cases illustrate the format of a correct answer.
                                   compound  numeric_value
0  CC(C)CN(C(=O)COC(=O)Cc1n[nH]c(=O)c2ccccc12)C1CCS(=O)(=O)C1 (stereo not given)          -3.12
1  O=C(Cn1cnc2ccccc2c1=O)NCCC(=O)N1CCN(Cc2ccccc2)CC1           0.52
2  O=C(NCCC1=CCCCC1)N[C@@H](Cc1ccccc1)C(=O)O           0.13
3  O=c1[nH]c(=O)n(C2CCCCCC2)c(O)c1C=NCc1ccc(F)cc1           -6.8

Name the reported inhibition value associated with the compound Cc1ccc(-c2nnn(CC(=O)N(Cc3cccs3)C(C(=O)NC(C)(C)C)c3ccc(C)o3)n2)o1 (stereo not given) -0.77

====

- Assay summary: growth inhibitors of H69AR lung tumor, primary screen, human, duplicate replicates (AID 580);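 note: 100% = mean luminescence of untreated wells and 0% = no signal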
- Assay context: H69AR lung tumor cells viability, ATP luminescence, 72 h; at 10 µM; hits give low values
Exercise: state measured viability for each of the compounds provided.
Give bare numbers, in %.

>>> df
                                   compound  numeric_value
0  CCOc1ccc(NC(=O)CN(C)S(=O)(=O)c2cccs2)cc1           93.9
1  CCc1ccccc1NC(=O)C(C#N)Cc1cccnc1 (stereo not drawn)           94.6

I have 8 compounds here; please give me viability for each one.
1. O=C(/C=N/O)NCc1ccncc1
2. CCCNC(=O)Nc1ccccc1C(=O)Nc1ccc(OC)cc1
3. CC1(C)Cc2c(c(-c3ccccc3)nc(N3CCCC3)c2C(N)=O)CO1
4. COC(=O)Nc1ccccc1C(=O)N1CCCCC1
5. COCCn1nnnc1C(C(C)C)N1CCN(C(=O)c2ccco2)CC1 (stereo not drawn)
6. COCCn1nnnc1C(c1ccc(OC)cc1)N1CCN(c2ccccc2F)CC1 (stereo not drawn)
7. CCc1nnc(NC(=O)c2ccc(COc3ccc(C)cc3)o2)s1
8. COCCN(CCOC)S(=O)(=O)c1ccc(C(=O)Nc2nnc(C3CC3)o2)cc1

[108, 94.6, 87, 99, 96.7, 89.7, 106, 82.7]

====

- Assay summary: SK-BR-3 cell growth inhibitors, pilot screen, 24 h, human (AID 572);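 note: compound exposure lasted between 18 and 24 h rather than exactly 24 h; 100% = carrier-treated control wells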
- Assay context: SK-BR-3 viability, CellTiter-Glo luminescence, at 10 µM, hits give low values
Exercise: state measured viability for each of the molecules provided.
Answers are plain numbers, in %.

>>> df
                                   molecule  units_symbol  numeric_value
0  COc1ccccc1CN1CCCC(C(=O)N(C)Cc2ccccc2)C1 (configuration not stated)             %             70
1  Cc1ccc(NC2=NC(c3ccccc3)n3c(nc(C)cc3=O)N2)cc1 (configuration not stated)             %           86.5
2  Cc1ccc(CNC(=O)C2CCN(S(=O)(=O)c3c(C)noc3C)CC2)cc1             %            100
3                    O=C(NCCO)c1scc2c1OCCO2             %            104

I have 7 molecules here; please give me viability for each one.
1. CC(C)(C)C1CCc2[nH]nc(C(=O)O)c2C1 (configuration not stated)
2. Cc1cc(C)c2nc(N)sc2c1
3. CCOC(=O)c1cc2sc(C)cc2n1C(C)C(=O)OCC (configuration not stated)
4. CN(C(=O)c1cc2sccc2n1C)C1CCCCC1
5. CC(=O)NC(Cc1ccccc1)C(=O)NC1CCN(C(=O)c2cnccn2)CC1 (configuration not stated)
6. CCS(=O)(=O)NCCc1cc2c(OC)ccc(OC)c2[nH]c1=O
7. Nc1nnnn1/N=C/c1ccccc1OCc1ccccc1

1. 104
2. 95.5
3. 97.5
4. 91
5. 122
6. 95.5
7. 118

The measurements presented in this section are drawn from PubChem BioAssay.
